biological target: T1, KRAS G13D (G13D-RT6) peptide on HLA-DQA1*05:01 / HLA-DQB1*03:01 (human); experiment: NFAT-luciferase; Jurkat-NFAT-Luc with the TCR and Lovo-DPA0301:DPB0501 cells loaded with G13D-RT6; against wild-type B8.2.4 TCR; full-length, on cells
T1 peptide: YKLVVVGAGDVGKSAL
propertyLabel: TCR Mut RLU/WT RLU (ratio)
All answers are understood in ratio, so give the number only.

Answered examples (2):
1. B8.2.4 TCR mutant α97R-T (TCR, V domains shown) Valpha: AQKITQTQPGMFVQEKEAVTLDCTYDTSDPSYGLFWYKQPSSGEMIFLIYQGSYDQQNATEGRYSLNFQKARKSANLVISASQLGDSAMYFCAMRETTGTASKLTFGTGTRLQVTL Vbeta: DVKVTQSSRYLVKRTGEKVFLECVQDMDHENMFWYRQDPGLGLRLIYFSYDVKMKEKGDIPEGYSVSREKKERFSLILESASTNQTSMYLCASSQTVPPQHFGDGTRLSIL ... 0.23
2. B8.2.4 TCR mutant α97R-E (TCR, V domains shown) Valpha: AQKITQTQPGMFVQEKEAVTLDCTYDTSDPSYGLFWYKQPSSGEMIFLIYQGSYDQQNATEGRYSLNFQKARKSANLVISASQLGDSAMYFCAMREETGTASKLTFGTGTRLQVTL Vbeta: DVKVTQSSRYLVKRTGEKVFLECVQDMDHENMFWYRQDPGLGLRLIYFSYDVKMKEKGDIPEGYSVSREKKERFSLILESASTNQTSMYLCASSQTVPPQHFGDGTRLSIL ... 0.16

Requested field: TCR Mut RLU/WT RLU. Item: B8.2.4 TCR mutant α97R-N (TCR, V domains shown) Valpha: AQKITQTQPGMFVQEKEAVTLDCTYDTSDPSYGLFWYKQPSSGEMIFLIYQGSYDQQNATEGRYSLNFQKARKSANLVISASQLGDSAMYFCAMRENTGTASKLTFGTGTRLQVTL Vbeta: DVKVTQSSRYLVKRTGEKVFLECVQDMDHENMFWYRQDPGLGLRLIYFSYDVKMKEKGDIPEGYSVSREKKERFSLILESASTNQTSMYLCASSQTVPPQHFGDGTRLSIL 0.16

Which TCR Mut RLU/WT RLU is reported for this binder? B8.2.4 TCR mutant α97R-K (TCR, V domains shown) Valpha: AQKITQTQPGMFVQEKEAVTLDCTYDTSDPSYGLFWYKQPSSGEMIFLIYQGSYDQQNATEGRYSLNFQKARKSANLVISASQLGDSAMYFCAMREKTGTASKLTFGTGTRLQVTL Vbeta: DVKVTQSSRYLVKRTGEKVFLECVQDMDHENMFWYRQDPGLGLRLIYFSYDVKMKEKGDIPEGYSVSREKKERFSLILESASTNQTSMYLCASSQTVPPQHFGDGTRLSIL 0.24

May I ask what TCR Mut RLU/WT RLU has been recorded for B8.2.4 TCR mutant α97R-H (TCR, V domains shown) Valpha: AQKITQTQPGMFVQEKEAVTLDCTYDTSDPSYGLFWYKQPSSGEMIFLIYQGSYDQQNATEGRYSLNFQKARKSANLVISASQLGDSAMYFCAMREHTGTASKLTFGTGTRLQVTL Vbeta: DVKVTQSSRYLVKRTGEKVFLECVQDMDHENMFWYRQDPGLGLRLIYFSYDVKMKEKGDIPEGYSVSREKKERFSLILESASTNQTSMYLCASSQTVPPQHFGDGTRLSIL ? 0.13

What measured TCR Mut RLU/WT RLU goes with B8.2.4 TCR mutant α97R-I (TCR, V domains shown) Valpha: AQKITQTQPGMFVQEKEAVTLDCTYDTSDPSYGLFWYKQPSSGEMIFLIYQGSYDQQNATEGRYSLNFQKARKSANLVISASQLGDSAMYFCAMREITGTASKLTFGTGTRLQVTL Vbeta: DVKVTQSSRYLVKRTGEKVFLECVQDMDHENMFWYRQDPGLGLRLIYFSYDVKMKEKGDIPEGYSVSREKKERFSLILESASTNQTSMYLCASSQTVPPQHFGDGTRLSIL ? 0.16

May I ask what TCR Mut RLU/WT RLU has been recorded for B8.2.4 TCR mutant α97R-M (TCR, V domains shown) Valpha: AQKITQTQPGMFVQEKEAVTLDCTYDTSDPSYGLFWYKQPSSGEMIFLIYQGSYDQQNATEGRYSLNFQKARKSANLVISASQLGDSAMYFCAMREMTGTASKLTFGTGTRLQVTL Vbeta: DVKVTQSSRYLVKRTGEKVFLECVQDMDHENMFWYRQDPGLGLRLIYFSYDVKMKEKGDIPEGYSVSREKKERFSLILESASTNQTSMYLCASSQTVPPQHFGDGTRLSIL ? 0.17

Please look up its TCR Mut RLU/WT RLU: B8.2.4 TCR mutant α97R-D (TCR, V domains shown) Valpha: AQKITQTQPGMFVQEKEAVTLDCTYDTSDPSYGLFWYKQPSSGEMIFLIYQGSYDQQNATEGRYSLNFQKARKSANLVISASQLGDSAMYFCAMREDTGTASKLTFGTGTRLQVTL Vbeta: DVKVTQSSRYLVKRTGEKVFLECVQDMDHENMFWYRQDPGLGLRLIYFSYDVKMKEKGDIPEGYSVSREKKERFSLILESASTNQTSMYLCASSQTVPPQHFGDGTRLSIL 0.17

Please give the measured TCR Mut RLU/WT RLU for this binder: B8.2.4 TCR mutant α97R-A (TCR, V domains shown) Valpha: AQKITQTQPGMFVQEKEAVTLDCTYDTSDPSYGLFWYKQPSSGEMIFLIYQGSYDQQNATEGRYSLNFQKARKSANLVISASQLGDSAMYFCAMREATGTASKLTFGTGTRLQVTL Vbeta: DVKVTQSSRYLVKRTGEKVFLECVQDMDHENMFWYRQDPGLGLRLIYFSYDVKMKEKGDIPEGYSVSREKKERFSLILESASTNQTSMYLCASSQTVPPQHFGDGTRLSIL 0.13

Name the reported TCR Mut RLU/WT RLU value associated with the binder B8.2.4 TCR mutant α97R-Y (TCR, V domains shown) Valpha: AQKITQTQPGMFVQEKEAVTLDCTYDTSDPSYGLFWYKQPSSGEMIFLIYQGSYDQQNATEGRYSLNFQKARKSANLVISASQLGDSAMYFCAMREYTGTASKLTFGTGTRLQVTL Vbeta: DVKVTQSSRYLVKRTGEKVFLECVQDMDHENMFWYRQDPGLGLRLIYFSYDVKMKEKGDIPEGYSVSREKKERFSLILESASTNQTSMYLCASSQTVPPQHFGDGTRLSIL 0.16
